molecular target: recombinant human FAP (Homo sapiens (Human), UniProt Q12884); assay: In vitro enzyme IC50 assay, FAP (Example 10); details: 10 min preincubation at 25° C., Z-Gly-Pro-AMC
Sequence (Q12884 whole entry): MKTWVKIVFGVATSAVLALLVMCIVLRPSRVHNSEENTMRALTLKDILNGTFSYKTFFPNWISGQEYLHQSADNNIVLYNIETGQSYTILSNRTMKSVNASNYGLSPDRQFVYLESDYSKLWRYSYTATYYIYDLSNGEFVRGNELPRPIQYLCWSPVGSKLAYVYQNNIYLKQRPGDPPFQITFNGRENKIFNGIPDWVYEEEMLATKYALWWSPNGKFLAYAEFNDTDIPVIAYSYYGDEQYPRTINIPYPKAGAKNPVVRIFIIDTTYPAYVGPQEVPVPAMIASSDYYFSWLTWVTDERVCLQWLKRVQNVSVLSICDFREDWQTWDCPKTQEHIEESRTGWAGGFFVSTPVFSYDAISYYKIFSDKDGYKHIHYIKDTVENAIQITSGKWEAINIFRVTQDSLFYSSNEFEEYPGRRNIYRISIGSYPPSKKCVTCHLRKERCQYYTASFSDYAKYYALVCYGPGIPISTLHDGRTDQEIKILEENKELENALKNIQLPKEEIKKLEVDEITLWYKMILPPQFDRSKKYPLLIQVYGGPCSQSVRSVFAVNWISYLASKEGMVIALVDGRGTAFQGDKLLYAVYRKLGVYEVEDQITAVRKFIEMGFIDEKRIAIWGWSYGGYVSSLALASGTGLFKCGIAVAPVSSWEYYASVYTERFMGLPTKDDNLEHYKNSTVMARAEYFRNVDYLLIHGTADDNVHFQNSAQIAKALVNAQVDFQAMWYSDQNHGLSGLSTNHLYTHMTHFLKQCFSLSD
measurement.type: IC50 (nM)
Numeric answer only, unit nM assumed.

| molecule | measurement.type | readout.number |
| --- | --- | --- |
| CC(C)[C@H](NC(=O)CN1CCN(CC(=O)O)CCN(CC(=O)O)CCN(CC(=O)O)CC1)C(=O)N[C@H](C)C(=O)N1CCC[C@H]1B(O)O | IC50 | 62 |
| C[C@H](NC(=O)CN1CCN(CC(=O)O)CCN(CC(=O)O)CCN(CC(=O)O)CC1)C(=O)N[C@H](C)C(=O)N1CCC[C@H]1B(O)O | IC50 | 71.7 |

Enquiry: Recorded IC50 for C[C@@H](NC(=O)[C@H](CO)NC(=O)CN1CCN2CCN(CC(=O)O)CCN(CC1)CC(=O)[O][Cu][O]C(=O)C2)C(=O)N1CCC[C@H]1B(O)O [Compound 6509CU, DOTA[(Cu(II)]-Ser-D-Ala-boroPro] with recombinant human FAP (Homo sapiens (Human), UniProt Q12884), please?
Return: 128
